The reported numbers originate from the supplement of paper PMC11208160.

- Test Description: recombinant barcode read abundance after kanamycin selection (control-corrected) (log10(CPM+1)); higher = more efficient recombination; sequences stand for … in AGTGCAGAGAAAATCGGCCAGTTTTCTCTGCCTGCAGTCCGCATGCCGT…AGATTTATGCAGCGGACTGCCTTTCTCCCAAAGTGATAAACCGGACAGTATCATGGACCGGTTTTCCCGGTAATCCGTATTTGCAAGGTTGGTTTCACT; site = the 11-nt target;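 note: IS621 recombinase and bridge RNA in Escherichia coli cells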
Would you mind classing the entries by recombinant barcode read abundance (log10)? Ranges: low = under 0.07, middle = from 0.07 up to 0.3, high = 0.3 and over

{"Item Sequence": "CAACCTACTTGGGTTCTAACCTGTTGCCT (site CAATCTACTAG)", "Class Name": "middle"}
{"Item Sequence": "GTGCTTACTTGGGTTCTAACCTGTTGCCT (site GCGCTTACTAG)", "Class Name": "low"}
{"Item Sequence": "AACTCATCTTGGGTTCTAACCTGTTGCCT (site AACTGATCTAG)", "Class Name": "middle"}
{"Item Sequence": "TTGACTGCTTGGGTTCTAACCTGTTGCCT (site TTGAATGCTAG)", "Class Name": "middle"}
{"Item Sequence": "GCACGGACTTGGGTTCTAACCTGTTGCAG (site GCAAGGACTCT)", "Class Name": "middle"}
{"Item Sequence": "GTGAGGTCTTGGGTTCTAACCTGTTGCGT (site GTGAGGTCTAC)", "Class Name": "high"}
{"Item Sequence": "CGCTCATCTTGGGTTCTAACCTGTTGCCT (site CGGTCATCTAG)", "Class Name": "middle"}
{"Item Sequence": "AGCGGACCTTGGGTTCTAACCTGTTGCCT (site AGCGGACCTAG)", "Class Name": "high"}
{"Item Sequence": "TAGCCTGCTTGGGTTCTAACCTGTTGCCT (site TAGACTGCTAG)", "Class Name": "low"}
{"Item Sequence": "TCTAACACTTGGGTTCTAACCTGTTGCCT (site GCTAACACTAG)", "Class Name": "low"}
{"Item Sequence": "ACAATAGCTTGGGTTCTAACCTGTTGCCT (site ACAATACCTCG)", "Class Name": "middle"}
{"Item Sequence": "CATTCAACTTGGGTTCTAACCTGTTGCCT (site CATTCAACTCG)", "Class Name": "middle"}
{"Item Sequence": "AACAGGCCTTGGGTTCTAACCTGTTGCCT (site TGTGACACTTT)", "Class Name": "low"}
{"Item Sequence": "GAAACAGCTTGGGTTCTAACCTGTTGCCT (site GAGACAGCTAG)", "Class Name": "middle"}
{"Item Sequence": "CATTTCACTTGGGTTCTAACCTGTTGCCT (site CATTTCACTAG)", "Class Name": "high"}
{"Item Sequence": "ACCCATTCTTGGGTTCTAACCTGTTGCGT (site TAGATAACTCA)", "Class Name": "low"}
{"Item Sequence": "AGCAGGGCTTGGGTTCTAACCTGTTGCAG (site AGTAGGACTCT)", "Class Name": "middle"}
{"Item Sequence": "AACCCACCTTGGGTTCTAACCTGTTGCCT (site TACCCACCTAG)", "Class Name": "high"}
{"Item Sequence": "CGCTGGCCTTGGGTTCTAACCTGTTGCTT (site CGCTGACCTAA)", "Class Name": "low"}
{"Item Sequence": "CTGTACTCTTGGGTTCTAACCTGTTGCCT (site CTGTACTCTAG)", "Class Name": "high"}
{"Item Sequence": "GAAGTCTCTTGGGTTCTAACCTGTTGCCT (site GAAGTCTCTAG)", "Class Name": "high"}
